# TARGET ENTITY: EGFR (Homo sapiens, UniProt P00533)
# Sequence (P00533 712-979 limits assumed): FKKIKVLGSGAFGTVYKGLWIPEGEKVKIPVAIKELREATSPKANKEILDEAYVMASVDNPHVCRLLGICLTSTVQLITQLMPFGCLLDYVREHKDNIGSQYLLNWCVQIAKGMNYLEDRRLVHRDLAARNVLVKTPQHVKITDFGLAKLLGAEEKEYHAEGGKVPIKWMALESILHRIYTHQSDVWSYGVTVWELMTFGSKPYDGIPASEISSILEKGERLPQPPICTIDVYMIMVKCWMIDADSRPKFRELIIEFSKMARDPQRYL
# ASSAY DETAILS: In vitro inhibition of EGFR using a scintillant proximity assay (C1)
# Format: biochemical
# Design: 0.5 μg EGFR-kinase domain/well
# STATED CONDITIONS: EGFR-kinase domain, poly(GT)biotin, 5.0 μM unlabeled ATP, 30° C. 60 minutes; read-out: EGFR SPA (C1): IC50
// boundary case: IC50 equal to 7 nM maps to rule not met; strictly smaller maps to rule met

mol_smiles=COc1cc2ncnc3c2cc1OCCCCCCOc1c(Cl)cccc1N3 cat="rule not met"
mol_smiles=COc1cc2ncnc3c2cc1OCCCCCCOc1ccccc1N3 cat="rule not met"
mol_smiles=COc1cc2ncnc3c2cc1OCCCCCCCCOc1ccc(Cl)cc1N3 cat="rule met"
mol_smiles=COc1cc2ncnc3c2cc1OCCCCCCOc1ccc(Br)cc1N3 cat="rule met"
mol_smiles=COc1cc2ncnc3c2cc1OCCCCCCCOc1ccc(Cl)cc1N3 cat="rule met"
mol_smiles=COc1cc2ncnc3c2cc1OCCCCCCOc1ccc(Cl)cc1N3 cat="rule met"
mol_smiles=COc1cc2ncnc3c2cc1OCCCCCOc1ccc(Cl)cc1N3 cat="rule not met"
mol_smiles=COc1cc2ncnc3c2cc1OC(=O)CCCCCOc1c(C)cccc1N3 cat="rule not met"
